Can you tell me growth for the items I'm about to list?
test system: SK-MEL-5 melanoma; test: NCI-60 one-dose screen, 48 h (100 = growth as untreated, 0 = no growth, -100 = all killed); settings: 10 µM unless noted
This is part of a sample that, as a whole, favours compounds with a hit. Of some 83,000 tested, about 20% had one in any assay.
Field: numeric (%). Do not append units.

[ask] Any idea what growth came out for COc1cccc2c1-c1ccccc1C2=O on SK-MEL-5 melanoma?
[reply] 9.97

[ask] Next record, please: O=C(O)COc1ccc2c(=O)c3sc4c(=O)c5ccccc5c(=O)c4c3c(=O)c2c1
[reply] -99.6

[ask] Next record, please: Cc1nc2sc(C(=O)Nc3ccccc3Cl)c(N)c2cc1C(C)O (configuration not stated)
[reply] 80.7

[ask] Next record, please: CC[C@]12C=CCN3CC[C@@]4(c5cc(NC(=O)CCC(=O)O[C@H]6CC[C@H]7[C@@H]8CC[C@H]9CC(=O)CC[C@]9(C)[C@H]8CC[C@]67C)c(OC)cc5N(C)[C@H]4[C@@](O)(C(=O)OC)[C@@H]1OC(C)=O)[C@@H]32
[reply] 54.4

[ask] Next record, please: [2H]c1cc2c(c([2H])c1F)/C(=C/c1[nH]c(C)c(C(=O)NCCN(CC)CC)c1C)C(=O)N2
[reply] 51

[ask] Next record, please: Cn1nc(C(F)(F)F)c(-c2cc(C(F)(F)F)cc(C(F)(F)F)c2)c1-c1ccc(OCc2ccc(Cl)cc2)cc1O
[reply] -36.6

[ask] Next record, please: CSc1cccc(NC(=O)Nc2nc3c(C)cccc3s2)c1
[reply] 95.6

[ask] Next record, please: CC(=O)O[C@@H]1C[C@]2(C)[C@H]3[C@H](O)C[C@@H]4C5=CC(C)(C)CC[C@]5(C)CC[C@@]4(C)[C@]3(C)CC[C@H]2C(C)(C)[C@H]1O
[reply] 114

[ask] Next record, please: CC(=O)OCC1SC(OC(C)=O)C(NC(=O)/C=C/CCl)C(OC(C)=O)C1OC(C)=O (configuration not stated)
[reply] 87.7

[ask] Next record, please: CCOC(=O)c1cnn(-c2nc(-c3ccc(F)cc3)c(C#N)c(N3CCOCC3)n2)c1N
[reply] 96.6

[ask] Next record, please: CN1C(=O)c2cc(Cl)nc3c(NC(=O)c4cccc(Cl)c4)c(Cl)c(NC(=O)c4cccc(Cl)c4)c1c23
[reply] 4.57

[ask] Next record, please: C=C1C(=O)O[C@H]2[C@H]1CC/C(COC(=O)c1cccnc1)=C\CC[C@@]1(C)O[C@@H]21
[reply] 88.9

[ask] Next record, please: COc1ccc(OCC(=O)OC(C)C)cc1
[reply] 96.4

[ask] Next record, please: O=C(O)c1cn(C2CC2)c2cc(N3CCN(C(=O)CSc4nnc(-c5ccc(Cl)cc5)n4-c4ccccc4)CC3)c(F)cc2c1=O
[reply] 98.8

[ask] Next record, please: O=S(=O)(Nc1nccs1)c1ccc(Nc2nc(-c3ccncc3)cs2)cc1
[reply] 107

[ask] Next record, please: C=C(C)[C@@H]1CC[C@]2(C(=O)OCCOCCOCC[P+](c3ccccc3)(c3ccccc3)c3ccccc3)CC[C@]3(C)[C@H](CC[C@@H]4[C@@]5(C)CC[C@H](C)C(C)(C)[C@@H]5CC[C@]43C)[C@@H]12
[reply] -98

[ask] Next record, please: COc1ccc(Cl)c([N+](=O)[O-])c1
[reply] 99.2

These entries and their values trace back to PubChem BioAssay (NCI).
